System: CT DNA
Test: Study of the DNA-interaction by cyclic voltammetry
Assay type: binding, calf
Settings: M(II)/M(I), 1:2 DMSO/buffer, presence of CT DNA

COMPOUND	TEST TARGET	Epc(b), cathodic potential / mV
CN1CCN(c2c(F)cc3c(=O)c(C(=O)[O-])cn(CCF)c3c2F)CC1.CN1CCN(c2c(F)cc3c(=O)c(C(=O)[O-])cn(CCF)c3c2F)CC1.[Mn+2].c1ccc(Nc2ccccn2)nc1 [complex 10, [Mn(flrx)2(bipyam)]]	CT DNA	−695
CN1CCN(c2c(F)cc3c(=O)c(C(=O)[O-])cn(CCF)c3c2F)CC1.[Cl-].[Cu+2].c1cnc2c(c1)ccc1cccnc12 [complex 8, [Cu(flrx)(phen)Cl]]	CT DNA	−720
CN1CCN(c2c(F)cc3c(=O)c(C(=O)[O-])cn(CCF)c3c2F)CC1.CN1CCN(c2c(F)cc3c(=O)c(C(=O)[O-])cn(CCF)c3c2F)CC1.CO.CO.[Ni+2] [complex 5, [Ni(flrx)2(MeOH)2]]	CT DNA	−701

====

Here the recorded K(BSA), BSA-binding constant is given for each entry.
Molecular target: bovine serum albumin (BSA) (Bos taurus)
Construct: purchased
Sequence (P02769 25-607): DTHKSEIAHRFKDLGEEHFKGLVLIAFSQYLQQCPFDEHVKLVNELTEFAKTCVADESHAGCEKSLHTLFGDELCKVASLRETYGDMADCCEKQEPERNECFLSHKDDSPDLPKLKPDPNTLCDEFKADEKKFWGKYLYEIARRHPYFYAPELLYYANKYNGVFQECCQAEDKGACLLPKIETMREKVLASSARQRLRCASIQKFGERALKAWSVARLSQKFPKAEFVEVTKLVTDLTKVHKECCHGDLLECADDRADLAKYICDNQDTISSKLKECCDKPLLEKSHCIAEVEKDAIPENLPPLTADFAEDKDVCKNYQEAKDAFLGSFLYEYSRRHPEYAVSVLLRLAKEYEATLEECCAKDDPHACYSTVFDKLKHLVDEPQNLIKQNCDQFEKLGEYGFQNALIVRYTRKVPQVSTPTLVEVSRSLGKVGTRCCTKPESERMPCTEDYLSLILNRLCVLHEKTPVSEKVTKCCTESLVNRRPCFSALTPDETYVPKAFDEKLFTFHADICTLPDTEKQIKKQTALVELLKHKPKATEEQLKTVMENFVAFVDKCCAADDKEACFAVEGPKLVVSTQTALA
Assay: Albumin binding by tryptophan fluorescence emission quenching
Conditions: BSA 3 μM, buffer pH 7.0, Scatchard equation

COMPOUND	K(BSA), BSA-binding constant
CN1CCN(c2c(F)cc3c(=O)c(C(=O)[O-])cn(CCF)c3c2F)CC1.CN1CCN(c2c(F)cc3c(=O)c(C(=O)[O-])cn(CCF)c3c2F)CC1.[Co+2].c1ccc(-c2ccccn2)nc1 [complex 15, [Co(flrx)2(bipy)]]	2.84(±0.11) × 10^5 M^−1
CN1CCN(c2c(F)cc3c(=O)c(C(=O)[O-])cn(CCF)c3c2F)CC1.CN1CCN(c2c(F)cc3c(=O)c(C(=O)[O-])cn(CCF)c3c2F)CC1.[Zn+2].c1ccc(-c2ccccn2)nc1 [complex 12, [Zn(flrx)2(bipy)]]	7.89(±0.33) × 10^4 M^−1

====

System: EB–DNA adduct (CT DNA)
Test: Competitive study with EB (EB–DNA fluorescence quenching)
Assay type: binding, calf
Conditions: [EB] = 20 μM, [DNA] = 26 μM, λexc 540 nm, λem 592 nm
# label = t if ΔI/Io, percentage of EB–DNA fluorescence quenching < 70% else f

MOLECULE	GROUP LABEL
CN1CCN(c2c(F)cc3c(=O)c(C(=O)[O-])cn(CCF)c3c2F)CC1.CN1CCN(c2c(F)cc3c(=O)c(C(=O)[O-])cn(CCF)c3c2F)CC1.[Ni+2].c1ccc(Nc2ccccn2)nc1 [complex 18, [Ni(flrx)2(bipyam)]]	t
CN1CCN(c2c(F)cc3c(=O)c(C(=O)O)cn(CCF)c3c2F)CC1	t
CN1CCN(c2c(F)cc3c(=O)c(C(=O)[O-])cn(CCF)c3c2F)CC1.CN1CCN(c2c(F)cc3c(=O)c(C(=O)[O-])cn(CCF)c3c2F)CC1.[Zn+2].c1ccc(Nc2ccccn2)nc1 [complex 13, [Zn(flrx)2(bipyam)]]	f

====

System: Staphylococcus aureus ATCC 6538
Test: Antimicrobial activity, MIC determination
Assay type: cell-based
Conditions: S. aureus; 24-h incubation, 37°C
Lab note - cut at 8 µM for MIC (values in parentheses): fulfilled if strictly below, not fulfilled if not.

MOLECULE	GROUP LABEL
CN1CCN(c2c(F)cc3c(=O)c(C(=O)[O-])cn(CCF)c3c2F)CC1.CN1CCN(c2c(F)cc3c(=O)c(C(=O)[O-])cn(CCF)c3c2F)CC1.CO.CO.[Ni+2] [complex 5, [Ni(flrx)2(MeOH)2]]	fulfilled
CN1CCN(c2c(F)cc3c(=O)c(C(=O)[O-])cn(CCF)c3c2F)CC1.CN1CCN(c2c(F)cc3c(=O)c(C(=O)[O-])cn(CCF)c3c2F)CC1.[Co+2].c1ccc(Nc2ccccn2)nc1 [complex 16, [Co(flrx)2(bipyam)]]	not fulfilled
CN1CCN(c2c(F)cc3c(=O)c(C(=O)[O-])cn(CCF)c3c2F)CC1.CN1CCN(c2c(F)cc3c(=O)c(C(=O)[O-])cn(CCF)c3c2F)CC1.O.O.[Mn+2] [complex 2, [Mn(flrx)2(H2O)2]]	fulfilled
CN1CCN(c2c(F)cc3c(=O)c(C(=O)[O-])cn(CCF)c3c2F)CC1.CN1CCN(c2c(F)cc3c(=O)c(C(=O)[O-])cn(CCF)c3c2F)CC1.[Co+2].c1ccc(-c2ccccn2)nc1 [complex 15, [Co(flrx)2(bipy)]]	fulfilled

====

Biological target: bovine serum albumin (BSA) (Bos taurus)
Construct: purchased
Test: Albumin binding by tryptophan fluorescence emission quenching
Settings: BSA 3 μM, buffer pH 7.0, Scatchard equation
Quick list: K(BSA), BSA-binding constant per entry.

COMPOUND	K(BSA), BSA-binding constant
CN1CCN(c2c(F)cc3c(=O)c(C(=O)[O-])cn(CCF)c3c2F)CC1.[Cl-].[Cu+2].c1ccc(Nc2ccccn2)nc1 [complex 7, [Cu(flrx)(bipyam)Cl]]	1.26(±0.05)×10^5 M^−1
CN1CCN(c2c(F)cc3c(=O)c(C(=O)[O-])cn(CCF)c3c2F)CC1.[Cl-].[Cu+2].c1cnc2c(c1)ccc1cccnc12 [complex 8, [Cu(flrx)(phen)Cl]]	5.03(±0.22) × 10^4 M^−1
CN1CCN(c2c(F)cc3c(=O)c(C(=O)[O-])cn(CCF)c3c2F)CC1.CN1CCN(c2c(F)cc3c(=O)c(C(=O)[O-])cn(CCF)c3c2F)CC1.[Mn+2].c1ccc(-c2ccccn2)nc1 [complex 9, [Mn(flrx)2(bipy)]]	1.39(±0.05) × 10^5 M^−1
CN1CCN(c2c(F)cc3c(=O)c(C(=O)[O-])cn(CCF)c3c2F)CC1.CN1CCN(c2c(F)cc3c(=O)c(C(=O)[O-])cn(CCF)c3c2F)CC1.[Zn+2].c1ccc(Nc2ccccn2)nc1 [complex 13, [Zn(flrx)2(bipyam)]]	3.60(±0.14) × 10^4 M^−1
CN1CCN(c2c(F)cc3c(=O)c(C(=O)[O-])cn(CCF)c3c2F)CC1.CN1CCN(c2c(F)cc3c(=O)c(C(=O)[O-])cn(CCF)c3c2F)CC1.CO.CO.[Zn+2] [complex 3, [Zn(flrx)2(MeOH)2]]	1.86(±0.08) × 10^5 M^−1

====

System: CT DNA
Test: Study of the DNA-interaction by cyclic voltammetry
Type: binding, calf
Conditions: M(II)/M(I), 1:2 DMSO/buffer, absence of CT DNA

COMPOUND	TEST TARGET	Epc(f), cathodic potential (mV)
CN1CCN(c2c(F)cc3c(=O)c(C(=O)[O-])cn(CCF)c3c2F)CC1.CN1CCN(c2c(F)cc3c(=O)c(C(=O)[O-])cn(CCF)c3c2F)CC1.O.O.[Mn+2] [complex 2, [Mn(flrx)2(H2O)2]]	CT DNA	−684
CN1CCN(c2c(F)cc3c(=O)c(C(=O)[O-])cn(CCF)c3c2F)CC1.[Cl-].[Cu+2].c1cnc2c(c1)ccc1cccnc12 [complex 8, [Cu(flrx)(phen)Cl]]	CT DNA	−725
CN1CCN(c2c(F)cc3c(=O)c(C(=O)[O-])cn(CCF)c3c2F)CC1.CN1CCN(c2c(F)cc3c(=O)c(C(=O)[O-])cn(CCF)c3c2F)CC1.[Co+2].c1ccc(-c2ccccn2)nc1 [complex 15, [Co(flrx)2(bipy)]]	CT DNA	−701

====

System: EB–DNA adduct (CT DNA)
Test: Competitive study with EB (EB–DNA fluorescence quenching)
Assay type: binding, calf
Conditions: EB–DNA adduct
Recorded Ksv, Stern–Volmer constant, one value per entry.

COMPOUND	TEST TARGET	Ksv, Stern–Volmer constant
CN1CCN(c2c(F)cc3c(=O)c(C(=O)[O-])cn(CCF)c3c2F)CC1.CN1CCN(c2c(F)cc3c(=O)c(C(=O)[O-])cn(CCF)c3c2F)CC1.CO.CO.[Ni+2] [complex 5, [Ni(flrx)2(MeOH)2]]	EB–DNA adduct (CT DNA)	2.33(±0.08) × 10^5 M^–1
CN1CCN(c2c(F)cc3c(=O)c(C(=O)[O-])cn(CCF)c3c2F)CC1.CN1CCN(c2c(F)cc3c(=O)c(C(=O)[O-])cn(CCF)c3c2F)CC1.[Ni+2].c1cnc2c(c1)ccc1cccnc12 [complex 19, [Ni(flrx)2(phen)]]	EB–DNA adduct (CT DNA)	3.18(±0.14) × 10^5 M^–1
CN1CCN(c2c(F)cc3c(=O)c(C(=O)[O-])cn(CCF)c3c2F)CC1.CN1CCN(c2c(F)cc3c(=O)c(C(=O)[O-])cn(CCF)c3c2F)CC1.O.O.[Mn+2] [complex 2, [Mn(flrx)2(H2O)2]]	EB–DNA adduct (CT DNA)	6.07(±0.23) × 10^5 M^–1
CN1CCN(c2c(F)cc3c(=O)c(C(=O)O)cn(CCF)c3c2F)CC1	EB–DNA adduct (CT DNA)	4.64(±0.14) × 10^5 M^–1
CN1CCN(c2c(F)cc3c(=O)c(C(=O)[O-])cn(CCF)c3c2F)CC1.CN1CCN(c2c(F)cc3c(=O)c(C(=O)[O-])cn(CCF)c3c2F)CC1.[Mn+2].c1ccc(Nc2ccccn2)nc1 [complex 10, [Mn(flrx)2(bipyam)]]	EB–DNA adduct (CT DNA)	5.92(±0.14) × 10^5 M^–1
